# measured-target: human SOS1 (nucleotide exchange of K-Ras^G12C) (Homo sapiens)
# assay-info: Biochemical assay 2: K-Ras^G12C activation assay by hSOS1 at high GTP concentration (HTRF)
# details: high GTP; read-out: Assay 2 (KRAS-Activation by SOS high GTP) activity expressed as IC50
property-name: IC50 (µM)
Numbers only here, please. The scale is µM.

Check out these entries, answers already filled in.
>>> quantitative_readout("COc1cc2nc(C)nc(N[C@H](C)c3cccc(-c4ccc(C)cc4C)c3)c2cc1OC")
3.14
>>> quantitative_readout("COc1cc2nc(C)nc(NC(C)c3ccc(-c4cc(C)n(C)c4C#N)s3)c2cc1OC (centres unmarked)")
17.4

Look up IC50: COc1cc2nc(C)nc(NC(C)c3ccc(-c4ccccc4OCCN4CCCC4)s3)c2cc1OC (centres unmarked) 0.443

Form field: reported IC50 of CNCc1ccccc1-c1cc(C(C)Nc2nc(C)nc3cc(OC)c(OC)cc23)cs1 (centres unmarked) 0.232

// IC50 lookup, key: COc1cc2nc(C)nc(N[C@@H](C)c3ccc(-c4csc5ccccc45)s3)c2cc1OC (racemic) 8.78

Can you look up the measured IC50 of COc1cc2nc(C)nc(N[C@@H](C)c3ccc(-c4cccc(NS(C)(=O)=O)c4)s3)c2cc1OC (racemic) for me? 16.4

Sample COCc1ccccc1-c1ccc([C@H](C)Nc2nc(C)nc3cc(OC)c(OC)cc23)s1 (racemic) — what was its IC50? 20

Given the entry COc1cc2nc(C)nc(N[C@H](C)c3cccc(-c4ccn[nH]4)c3)c2cc1OC [Example 75] , report its measured IC50. 1.15

====

# measured-target: human SOS1 (loading of human K-Ras^G12C-GDP with fluorescent GTP-analog) (Homo sapiens, UniProt Q07889)
# assay-info: Biochemical assay 3: K-Ras^G12C activation assay by hSOS1 (HTRF)
# details: no GTP; read-out: Assay 3 (KRAS-Activation by SOS no GTP) activity expressed as IC50
Catalogue of molecules with associated pIC50
The read-out pIC50 is expressed as -log10 of concentration in moles per litre.

Reference set, count: 3
>>> quantitative_readout("COc1cc2nc(C)nc(N[C@H](C)c3cccc(-c4ccnn4C)c3)c2cc1OC [Example 339]")
5.70
>>> quantitative_readout("COc1cc2nc(C)nc(N[C@H](C)c3cccc(-c4ccc(C)cc4C)c3)c2cc1OC [Example 94]")
5.37
>>> quantitative_readout("COc1cc2nc(C)nc(NC(C)c3ccc(-c4cnc5n4CCC5)s3)c2cc1OC (single isomer, unassigned; enantiomer 1) [Example 328]")
6.17

Which pIC50 value is on record for COc1cc2nc(C)nc(N[C@@H](C)c3ccc(-c4cncc(C)c4)s3)c2cc1OC (racemic) [Example 46] ? 5.39

====

The molecules listed here are annotated with their pIC50.
# measured-target: human SOS1 (nucleotide exchange of K-Ras^G12C) (Homo sapiens, UniProt Q07889)
# assay-info: Biochemical assay 2: K-Ras^G12C activation assay by hSOS1 at high GTP concentration (HTRF)
# details: E-notation values; unit inferred; 50 μM GTP; read-out: Assay 2 (KRAS-Activation, high GTP) IC50
On this scale, pIC50 is minus log10 of a concentration expressed in M (mol/L).

>>> quantitative_readout("COc1cc2nc(C)nc(NC(C)c3ccc(-c4ccccc4CN(C)C)s3)c2cc1OC (single isomer, unassigned) [Example 391]")
7.44
>>> quantitative_readout("COc1cc2nc(C)nc(NC(C)c3ccc(-c4ccc(F)cc4CNC(=O)CO)s3)c2cc1OC (stereo not shown) [Example 382]")
6.03
>>> quantitative_readout("CC(=O)NCCNc1ccc2nc(C)nc(NC(C)c3ccc(-c4ccccc4CN(C)C)s3)c2c1 (stereo not shown) [Example 427]")
7.30
>>> quantitative_readout("COc1cc2nc(C)nc(NC(C)c3sc(Br)cc3Cl)c2cc1OC (stereo not shown) [Example 428]")
6.15
>>> quantitative_readout("COc1cc2nc(C)nc(NC(C)c3cc(Cl)c(-c4ccccc4CN(C)C)s3)c2cc1OC (stereo not shown) [Example 431]")
6.67
>>> quantitative_readout("Cc1nc(NC(C)c2ccc(-c3ccccc3CN(C)C)s2)c2cc(NS(C)(=O)=O)ccc2n1 (stereo not shown) [Example 438]")
7.18
>>> quantitative_readout("COc1cc2nc(C)nc(NC(C)c3ccc(-c4ccccc4CC(N)=O)s3)c2cc1OC (stereo not shown) [Example 394]")
5.79
>>> quantitative_readout("Cc1nc(NC(C)c2ccc(-c3ccccc3CN(C)C)s2)c2cc(N3CCN(Cc4cccnc4)CC3)ccc2n1 (stereo not shown) [Example 426]")
7.64

The record that follows has no pIC50 shown yet.
Can you share its pIC50? I mean this molecule: COc1cc2nc(C)nc(NC(C)c3ccc(-c4ccnc(O)c4)s3)c2cc1OC (stereo not shown) [Example 410] 5.55
